Collected TGI values appear next to each entry.
- System: BT-549 breast
- assayProcedure: NCI tumour cell line growth inhibition, 48 h
measuredParameter: TGI (µM)

INSERT INTO results (compound, targetortestsystem, readoutqualifier, assayvalue) VALUES
  ('COc1ccc(-c2nn(C(=O)NCCN(C)C)cc2-c2ccncc2)cc1Cl', 'BT-549 breast', '>', 100),
  ('CC(=O)N/N=C1/NN(C(C)=O)C2(S1)C(=O)Nc1ccc(C)cc12 (configuration not stated)', 'BT-549 breast', '>', 100),
  ('COc1ccc(NC(=O)CC(=O)NN)cc1', 'BT-549 breast', '>', 100),
  ('CCOC(=O)C1=C(C)N=C2SC=C(c3ccccc3)N2[C@H]1c1cn[nH]c1-c1ccc(Cl)cc1', 'BT-549 breast', '=', 13.9),
  ('COC1C(O)CC(OC2CC(OC3CC(O[C@@H]4C(=O)c5c(cc6cc(OC7CC(OC8CC(O)C(O)C(C)O8)C(O)C(C)O7)c(C)c(O)c6c5O)CC4[C@H](OC)C(=O)C(C)=O)OC(C)C3O)OC(C)C2O)OC1C (some centres not stated)', 'BT-549 breast', '=', 0.0335),
  ('CCCCCCCCCCCCCCCCSC(=NCC)NCC', 'BT-549 breast', '=', 46.9),
  ('CC(=O)Nc1nc2ncc(C=O)nc2c(=O)[nH]1', 'BT-549 breast', '>', 100);

----------
Catalogue of compounds with associated TGI
- Tested on: LOX IMVI melanoma
- assayProcedure: NCI tumour cell line growth inhibition, 48 h
measuredParameter: TGI (µM)

INSERT INTO assay_data (compound, measuredparameter, readoutqualifier, assayvalue) VALUES
  ('O=C1/C(=N\O)C2CCC1C2 (configuration not stated)', 'TGI', '>', 100),
  ('OCCCc1n(Cc2ccc3ccccc3c2)c2ccccc2[n+]1Cc1ccc2ccccc2c1', 'TGI', '=', 2.68),
  ('O=C(O)CCc1ccc(-c2ccccc2)[nH]1', 'TGI', '>', 100),
  ('COc1ccc(C(=O)/C=C/c2c(OC)cc(OC)cc2OC)c(OC)c1', 'TGI', '>', 100),
  ('CN(C)c1ccc(/C=C(\C#N)c2nc(-c3cc4ccccc4oc3=O)cs2)cc1', 'TGI', '>', 50),
  ('O=C(COc1ccc2c(=O)cc(-c3ccc(Cl)cc3)oc2c1)N1CCN(c2ccccc2)CC1', 'TGI', '>', 100),
  ('O=C1c2ccccc2C(=O)c2c(Nc3ccc(CCO)cc3)ccc(O)c21', 'TGI', '=', 14.5),
  ('CC(C)Cc1ccc(C(C)C(=O)NCc2ccc(Cn3c(=O)sn(CCCCl)c3=O)cc2)cc1 (configuration not stated)', 'TGI', '=', 2.52),
  ('O=C(Cc1csc2nc(-c3ccc(Br)cc3)cn12)N/N=C/c1ccccc1', 'TGI', '=', 90.8),
  ('CCN(Cc1ccccc1F)c1ccc(CO)c(Cl)c1', 'TGI', '=', 44.2),
  ('Cc1ccc(N=Nc2c(C)nn(-c3ccccc3)c2-c2ccccc2)c(Br)c1', 'TGI', '>', 100),
  ('COc1ccc(N[C@H]([C@@H](c2ccccc2)S(=O)c2ccc(C)cc2)C(F)(F)F)cc1 (some centres not stated)', 'TGI', '>', 100),
  ('Cc1csc(-n2nc(C)cc2C)n1', 'TGI', '>', 100),
  ('O=C(c1ccccc1)c1c(C(F)(F)F)n([O-])c2ccc(F)cc2[n+]1=O', 'TGI', '=', 0.317),
  ('COc1ccc(-c2cc(=O)c3cc(C)cnc3[nH]2)cc1', 'TGI', '>', 100),
  ('Cn1nc(-c2ccccc2)c(C(=O)/C=C/c2ccc(F)cc2)c(N2CCCC2)c1=O', 'TGI', '>', 100),
  ('Cc1ccc(/C=C2\COc3ccc(O)c(O)c3C2=O)cc1', 'TGI', '=', 1.34),
  ('O=C1Nc2ccccc2/C1=C/C(=O)c1ccc(N2CCCC2)cc1', 'TGI', '=', 3.56),
  ('O=C1C(c2ccc([N+](=O)[O-])cc2)=[N+]([O-])c2ccc([N+](=O)[O-])cc21', 'TGI', '>', 100),
  ('COc1c(Cl)cc(Cl)cc1S(=O)O', 'TGI', '>', 100),
  ('Cn1c(-c2ccccc2)c2cc3nc4ccccc4nc3cc2c1-c1ccccc1', 'TGI', '=', 65),
  ('O=CC12c3ccccc3C(c3ccccc31)C1C(=O)NC(=O)C12 (configuration not stated)', 'TGI', '>', 100);
